Consider the following compounds; for each one, report its GI50.
system: BT-549; test: NCI tumour cell line growth inhibition, 48 h
Activity calls are given as the source filed them. No stated cut-off is given here; in the data, active = GI50 up to about 1.1 µM and inactive = higher.

Enquiry: Give the reported GI50 for this compound. c1csc(-c2cscc2-c2cccs2)c1
Return: 63.4 µM (inactive)

Enquiry: Specify reported GI50 for the compound shown: CC#CC#C/C=C1\C=CC2(OC=CC2OC(C)=O)O1 (stereo not given)
Return: 34.7 µM (inactive)

Enquiry: Using known records, supply GI50 for COc1ccc(/C=C/C(=O)Oc2ccccc2OC)cc1
Return: 67 µM (inactive)

Enquiry: Report GI50, nothing else, for this compound: CCOC(=O)c1nnsc1NC(=O)Nc1ccc(Cc2ccc(NC(=O)Nc3snnc3C(=O)OCC)cc2)cc1
Return: > 100 µM (inactive)

Enquiry: Give the reported GI50 for this compound. Cc1cc(N(CCC#N)CCC#N)ccc1/C=C(\NC(=O)/C=C/c1ccccc1)C(=O)NN
Return: 25.6 µM (inactive)
